Quick reference: IC50 of the listed items.
# target system: CK2a2 (Homo sapiens (Human))
# Sequence (P19784 whole entry): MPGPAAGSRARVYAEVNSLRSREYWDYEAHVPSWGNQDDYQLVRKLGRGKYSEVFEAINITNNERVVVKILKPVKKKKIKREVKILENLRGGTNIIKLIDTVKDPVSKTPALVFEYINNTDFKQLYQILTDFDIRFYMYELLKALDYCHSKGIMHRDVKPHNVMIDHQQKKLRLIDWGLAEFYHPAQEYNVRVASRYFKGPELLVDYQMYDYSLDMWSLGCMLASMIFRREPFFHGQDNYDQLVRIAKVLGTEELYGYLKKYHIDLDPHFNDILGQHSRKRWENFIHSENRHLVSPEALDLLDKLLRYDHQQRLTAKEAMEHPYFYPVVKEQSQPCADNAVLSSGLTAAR
observation type: IC50

[[record]]
compound_structure_string = "O=c1cc(-c2ccc3c(c2)OC(F)(F)O3)[nH]c2c(-c3ccccn3)cnn12"
observation_type = "IC50"
test_result = "≤ 10 µM"

[[record]]
compound_structure_string = "Nc1nn2c(=O)cc(-c3ccc4[nH]ncc4c3)[nH]c2c1-c1ccccn1"
observation_type = "IC50"
test_result = "≤ 10 µM"

[[record]]
compound_structure_string = "O=c1cc(-c2ccc3[nH]ncc3c2)[nH]c2c(-c3ccccn3)cnn12"
observation_type = "IC50"
test_result = "≤ 10 µM"

[[record]]
compound_structure_string = "NC(=O)c1cnn2c(=O)cc(-c3ccc4c(c3)OCCO4)[nH]c12"
observation_type = "IC50"
test_result = "≤ 10 µM"

[[record]]
compound_structure_string = "Cc1nn2c(=O)cc(-c3ccc4c(c3)OCCO4)[nH]c2c1-c1ccccc1"
observation_type = "IC50"
test_result = "≤ 10 µM"

[[record]]
compound_structure_string = "COc1ccc2c(c1)CCc1c-2[nH]c2c(-c3ccccn3)cnn2c1=O"
observation_type = "IC50"
test_result = "≤ 10 µM"

[[record]]
compound_structure_string = "O=c1cc(-c2ccc3occc3c2)[nH]c2c(-c3cccnc3)c(O)nn12"
observation_type = "IC50"
test_result = "≤ 10 µM"

[[record]]
compound_structure_string = "COc1cccc(-c2cc(=O)n3nc(C)c(Cc4ccc(Cl)cc4)c3[nH]2)c1"
observation_type = "IC50"
test_result = "≥ 10 µM"

[[record]]
compound_structure_string = "Cc1nn2c(=O)cc(-c3cccnc3)[nH]c2c1-c1ccc(F)cc1"
observation_type = "IC50"
test_result = "≤ 10 µM"

[[record]]
compound_structure_string = "O=c1cc(-c2ccc3c(c2)CCO3)[nH]c2c(-c3ccccn3)cnn12"
observation_type = "IC50"
test_result = "≤ 10 µM"

[[record]]
compound_structure_string = "O=c1cc(-c2ccc3[nH]nnc3c2)[nH]c2c(-c3ccccn3)c(O)nn12"
observation_type = "IC50"
test_result = "≤ 10 µM"

[[record]]
compound_structure_string = "N#Cc1cnn2c(=O)cc(-c3ccc4c(c3)OCCO4)[nH]c12"
observation_type = "IC50"
test_result = "≤ 10 µM"

[[record]]
compound_structure_string = "CN1CCN(C(=O)c2cnn3c(=O)cc(-c4ccc5c(c4)OCCO5)[nH]c23)CC1"
observation_type = "IC50"
test_result = "≤ 10 µM"

[[record]]
compound_structure_string = "CN(Cc1ccccc1)C(=O)c1cnn2c(=O)cc(-c3ccc4c(c3)OCCO4)[nH]c12"
observation_type = "IC50"
test_result = "≤ 10 µM"

[[record]]
compound_structure_string = "O=c1cc(-c2ccc3occc3c2)[nH]c2c(-c3ccccc3)cnn12"
observation_type = "IC50"
test_result = "≤ 10 µM"

[[record]]
compound_structure_string = "Cc1nn2c(=O)cc(-c3ccc4c(c3)OCCO4)[nH]c2c1-c1ccc(F)cc1"
observation_type = "IC50"
test_result = "≤ 10 µM"

[[record]]
compound_structure_string = "CCCc1c(C)nn2c(=O)cc(-c3ccc(OC)cc3)[nH]c12"
observation_type = "IC50"
test_result = "≥ 10 µM"

[[record]]
compound_structure_string = "Nc1nn2c(=O)cc(-c3ccc(F)cc3)[nH]c2c1-c1ccccn1"
observation_type = "IC50"
test_result = "≤ 10 µM"

[[record]]
compound_structure_string = "O=c1cc(-c2ccc3c(c2)OCCO3)[nH]c2c(-c3ccc(N4CCCC4)nc3)cnn12"
observation_type = "IC50"
test_result = "≤ 10 µM"

[[record]]
compound_structure_string = "O=c1cc(-c2ccc3c(c2)CCO3)[nH]c2c(-c3ccccn3)c(O)nn12"
observation_type = "IC50"
test_result = "≥ 10 µM"

